# System: glioblastoma U-87 MG cells transduced with HSV1-TK (human Herpes simplex virus type 1 thymidine kinase)
# measurement.protocol: Cell proliferation (XTT), sensitivity to AZT
# Format: cell-based
# condition.summary: 120 h, stable polyclonal cell lines, 5 days of drug exposure
property.name: pIC50
Scale explanation: pIC50 corresponds to minus log10 of a concentration expressed in moles per litre.

Inquiry: Given Cc1cn([C@H]2C[C@H](N=[N+]=[N-])[C@@H](CO)O2)c(=O)[nH]c1=O [AZT, 3′-azido-3′-deoxythymidine] , state its recorded pIC50.
Reply text: 2.59

###

# Test system: glioblastoma U-87 MG cells transduced with PZG69: TomTK1 (tomato TK1, SEQ ID NO: 4)
# measurement.protocol: cells
# condition.summary: Homo sapiens, 120 h, transient polyclonal cell lines, 5 days of drug exposure
property.name: pIC50
Scale explanation: pIC50 corresponds to minus log10 of a concentration expressed in moles per litre.

Inquiry: Lookup: pIC50 / glioblastoma U-87 MG cells transduced with PZG69: TomTK1 (tomato TK1, SEQ ID NO: 4) / "Cc1cn([C@H]2C[C@H](N=[N+]=[N-])[C@@H](CO)O2)c(=O)[nH]c1=O"
Reply text: 4.33
